Data origin: paper PMC7060200

Entries annotated with measured Kd
TARGET_SYSTEM: T1, DNAJA1 (DJA1), His-tagged (UniProt P31689 1-397)
T1 construct: DNAJA1, J-domain co-chaperone of HSC70
TEST_NAME: ELISA; competition: 1 μM chaperone mixed with soluble peptide (titrated up to 100 μM, or fixed 100 μM in the screens) and bound to immobilised 1097-L; Kd of the competing peptide from linearised competition curves
CONDITION_DESCRIPTION: both partners purified
EXPERIMENTAL_READOUT: Kd

* TVILCEHRIEAMLEC (peptide, UniProt P13569 1396-1410, looked up, CFTR, 15-mer numbered by its middle residue 1403, from NBD2; source: synthetic peptide (Lifetein, unmodified, >85% purity)) [CFTR peptide 1403-L, soluble unmodified] | 9.15 µM
* DCTVILCEH (peptide, UniProt P13569 1394-1402, looked up, source: synthetic peptide (Lifetein, unmodified, >85% purity)) [CFTR peptide 1398-S] | 18.3 µM
* RTLKQAFADCTVILC (peptide, UniProt P13569 1386-1400, looked up, CFTR, 15-mer numbered by its middle residue 1393, from NBD2; source: synthetic peptide (Lifetein, unmodified, >85% purity)) [CFTR peptide 1393-L, soluble unmodified] | 15.7 µM
